Assignment: determine reported Ki for the given molecules.
- SUBJECT_OF_TEST: human wild-type α2AR (Homo sapiens, UniProt P08913)
- Sequence (P08913 whole entry): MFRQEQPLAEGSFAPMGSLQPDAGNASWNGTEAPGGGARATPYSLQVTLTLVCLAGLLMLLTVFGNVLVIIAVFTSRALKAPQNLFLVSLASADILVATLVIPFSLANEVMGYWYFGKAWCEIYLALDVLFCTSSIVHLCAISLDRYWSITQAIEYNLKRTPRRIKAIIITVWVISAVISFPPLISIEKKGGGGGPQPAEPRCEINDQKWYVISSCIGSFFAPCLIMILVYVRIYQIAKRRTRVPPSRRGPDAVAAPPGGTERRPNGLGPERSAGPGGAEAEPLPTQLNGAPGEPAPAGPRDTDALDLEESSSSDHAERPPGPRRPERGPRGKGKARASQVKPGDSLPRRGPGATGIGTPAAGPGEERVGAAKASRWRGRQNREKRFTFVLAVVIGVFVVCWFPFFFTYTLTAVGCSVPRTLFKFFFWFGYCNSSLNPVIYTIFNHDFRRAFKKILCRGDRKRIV
- EXPERIMENTAL_PROTOCOL: Radioligand binding with [3H]rauwolscine (competition and saturation), membranes of transfected HEK293 cells
- Parameters: host or cells: mouse connective-tissue cells stably expressing the receptor
- TEST_SETTINGS: [3H]rauwolscine competition, HEK293 membranes, mean ± SD; read-out: Affinity (Ki ± SD; nM) α2AR
Give just the number in nM; leave the unit off.

Look up Ki: Fc1ccccc1-c1cccc2c1CC[C@H](N1CCCC1)C2 [(S)-4] 5.7

Which measured Ki value corresponds to Fc1ccccc1-c1cccc2c1CC[C@@H](N1CCCC1)C2 [(R)-4] ? 1000

---

Would you kindly list pKi for each of these molecules?
- SUBJECT_OF_TEST: UniProt:P08913
- EXPERIMENTAL_PROTOCOL: Radioligand binding with [3H]rauwolscine (competition and saturation), membranes of transfected HEK293 cells
- Set-up: host or cells: mouse connective-tissue cells stably expressing the receptor
A value of pKi is the negative decimal logarithm of a concentration given in moles per litre.

Lab note: need pKi for CN(C)[C@H]1CCc2c(cccc2-c2cccs2)C1 [(S)-9] on UniProt:P08913, anyone have it? 8.21

Please provide the recorded pKi for CN(C)[C@H]1CCc2c(cccc2-c2cccn2C)C1 [(S)-10] , tested on UniProt:P08913. 7.92

Item: CN(C)[C@H]1CCc2c(cccc2-c2ccccc2)C1 [(S)-1] Test system: UniProt:P08913 Read-out: pKi Value: ? 8.16
